Attribution: PubChem BioAssay AID1159580

- EXPERIMENT: chemical genetic growth profiling, strain panel (AID 1159580);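 note: tested at 20 µM; growth read once vehicle control cultures reached saturation at 30 °C; lower values mean less growth of the strain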
- MEASUREMENT SETUP: S. cerevisiae deletion strains, growth OD, locus YDR388W
Among all 5,500 compounds or so, about 2,000 (36%) were called active. Another 18% or so got no clear call; they are omitted. Cut-off read from the data, not from the text of the source: active = normalized growth mostly below about 0.91 (no sharp cut-off); inconclusive = no clear call, values can overlap the other calls; inactive = mostly above about 0.92. The list shows a part of the results.
Your answer must be one of the following: active, inactive

MOLECULE	LABEL VALUE
CCN(CC)CCNc1ccc(CO)c2sc3ccccc3c(=O)c12	inactive
CC1NC(=O)NC1=O (stereo not given)	inactive

Prompt: // param item: `Nc1ccc(C(=O)O)c(O)c1` ; yields the recorded call
Completion: inactive

Prompt: // param item: `C[n+]1cc2c3c(ccc2c2ccc4cc5c(cc4c21)OCO5)OCO3` ; yields the recorded call
Completion: active

Prompt: // param item: `CCn1cc(C(=O)O)c(=O)c2cc(F)c(N3CCNCC3)cc21` ; yields the recorded call
Completion: inactive

Prompt: // param item: `COc1cc2cc[n+]3cc4c(OC)c(OC)ccc4cc3c2cc1OC` ; yields the recorded call
Completion: inactive

Prompt: // param item: CC1(C)O[C@@H]2CC3C4C[C@H](F)C5=CC(=O)C=CC5(C)C4C(O)CC3(C)[C@]2(C(=O)CO)O1 (stereo not given in full) ; yields the recorded call
Completion: inactive
